The compounds listed here are annotated with their fold change of Putrescine concentration.
tested on: Klebsiella aerogenes DSM 30053; assay: fold change of Putrescine concentration vs plate DMSO controls (fold change (ratio)); higher = more amine produced, active = hit call of the paper (significant change in both replicates, either direction); conditions: incubation time: 27 h, anaerobic, 37 °C
Structures can show the parent of a compound that is named as a salt.
Write the value as a bare number.

Please review the entries below; each comes with its answer.
CC(C(=O)O)c1ccc2c(c1)CC(=O)c1ccccc1S2 (stereo unspecified) [Zaltoprofen] (20 µM)	1.04
CC(=O)[C@H]1CC[C@H]2[C@@H]3C=CC4=CC(=O)CC[C@@]4(C)[C@@H]3CC[C@]12C [Dydrogesterone] (20 µM)	1.01
COc1ccc(C(=O)c2ccc(C)cc2)c(O)c1 [Mexenone] (20 µM)	1.01
CC(=O)N[C@@H](CC(C)C)C(=O)O [N-Acetyl-L-leucine] (20 µM)	1.01
COc1cc(NC(C)CCCN)c2ncccc2c1 (stereo unspecified) [Primaquine diphosphate] (20 µM)	0.943
CN(Cc1cnc2nc(N)nc(N)c2n1)c1ccc(C(=O)N[C@@H](CCC(=O)O)C(=O)O)cc1 [Amethopterin] (20 µM)	1
NCCCC(O)(P(=O)(O)O)P(=O)(O)O [Alendronate sodium] (20 µM)	0.947
Cc1c(C)c2c(c(C)c1O)CCC(C)(COc1ccc(CC3SC(=O)NC3=O)cc1)O2 (stereo unspecified) [Troglitazone] (20 µM)	0.995
CC(=O)O[C@]1(C(C)=O)CC[C@H]2[C@@H]3C=C(Cl)C4=CC(=O)[C@@H]5C[C@@H]5[C@]4(C)[C@H]3CC[C@@]21C [Cyproterone acetate] (20 µM)	1
CN(C)CCCN1c2ccccc2Sc2ccc(Cl)cc21 [Chlorpromazine hydrochloride] (20 µM)	0.959

Asked: For the compound CN(C)CCOC(=O)COc1ccc(Cl)cc1 [Meclofenoxate hydrochloride] (20 µM) , give its measured fold change of Putrescine concentration value.
Given back: 1.01

Asked: For the compound NNc1nncc2ccccc12 [Hydralazine hydrochloride] (20 µM) , give its measured fold change of Putrescine concentration value.
Given back: 1.01
